- tested.target: human TLR7 (Homo sapiens)
- Construct: expressed in transfected cells; host or cells: HEK293
- Sequence (Q9NYK1 27-1049): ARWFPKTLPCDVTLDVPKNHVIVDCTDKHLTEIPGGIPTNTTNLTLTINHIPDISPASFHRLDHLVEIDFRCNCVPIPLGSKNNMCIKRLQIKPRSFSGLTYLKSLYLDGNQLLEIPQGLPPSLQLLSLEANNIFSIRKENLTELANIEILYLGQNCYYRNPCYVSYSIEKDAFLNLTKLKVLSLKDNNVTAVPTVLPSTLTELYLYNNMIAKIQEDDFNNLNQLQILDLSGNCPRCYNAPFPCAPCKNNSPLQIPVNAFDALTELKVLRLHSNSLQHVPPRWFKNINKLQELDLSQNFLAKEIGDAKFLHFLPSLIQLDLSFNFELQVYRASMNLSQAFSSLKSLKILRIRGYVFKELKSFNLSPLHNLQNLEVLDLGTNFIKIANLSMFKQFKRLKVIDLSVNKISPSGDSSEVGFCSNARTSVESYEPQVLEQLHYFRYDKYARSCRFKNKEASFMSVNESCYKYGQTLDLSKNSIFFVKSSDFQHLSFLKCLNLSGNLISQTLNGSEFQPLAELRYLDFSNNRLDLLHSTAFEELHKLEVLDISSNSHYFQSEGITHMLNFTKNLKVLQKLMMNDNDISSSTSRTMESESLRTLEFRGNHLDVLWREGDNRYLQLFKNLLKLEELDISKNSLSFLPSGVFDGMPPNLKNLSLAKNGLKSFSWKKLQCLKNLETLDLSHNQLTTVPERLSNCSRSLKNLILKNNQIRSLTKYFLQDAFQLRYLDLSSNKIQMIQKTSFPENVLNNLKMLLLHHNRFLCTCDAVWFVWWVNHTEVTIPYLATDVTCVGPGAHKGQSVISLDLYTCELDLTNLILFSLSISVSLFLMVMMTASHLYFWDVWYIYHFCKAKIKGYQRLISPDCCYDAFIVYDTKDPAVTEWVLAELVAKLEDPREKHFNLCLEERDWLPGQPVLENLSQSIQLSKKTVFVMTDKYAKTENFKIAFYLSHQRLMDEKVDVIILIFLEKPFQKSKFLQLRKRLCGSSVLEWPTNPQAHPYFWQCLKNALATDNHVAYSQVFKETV
- assay.notes: TLR7 wild type NFκB-luc cellular reporter assay
- Format: cell-based
- Set-up: unit not given here
- experimental.setup: HEK293 NFκB-luc reporter, 6 hours incubation; second part of table
quantity.kind: TLR7-wt (LEC)

Use the examples below as a reference point.
[[record]]
molecule = "CCCC[C@@H](CCO)Nc1nc(N)nc2cccc(C)c12"
value = 0.14

[[record]]
molecule = "CCC[C@@H](CCO)Nc1nc(N)nc2ccc(F)cc12"
value = 0.94

[[record]]
molecule = "CCCC[C@@H](CO)Nc1nc(N)nc2cccc(C)c12"
value = 0.41

[[record]]
molecule = "CCCCNc1nc(N)nc2cccc(OCCOC)c12"
value = 0.08


1. CCCCNc1nc(N)nc2ccc(Oc3ccc(C(F)(F)F)cc3Cl)cc12
2. CCC[C@@H](CO)Nc1nc(N)nc2cccc(C)c12
3. CCCCNc1nc(N)nc2ccc(C(C)O)cc12 (stereo not shown)
Challenge: Order the 3 molecules from highest to lowest TLR7-wt (LEC). Provide your answer as the labels ordered per the instruction.
Response given: 3, 1, 2

----------
- Tested on: interferon-stimulated responsive elements (ISRE)
- assay.notes: Activation of ISRE promoter elements by conditioned media from PBMC (HEK-ISREluc)
- Format: cell-based, human
- Parameters: unit not given here
- experimental.setup: compound applied to PBMCs, supernatant transferred to HEK-ISREluc cells, 24 hours
HEK-ISRE luc (LEC) for assorted compounds
No unit in the answer, only the number.

[[record]]
structure = "CCCCNc1nc(N)nc2ccc(F)cc12"
tested_target = "interferon-stimulated responsive elements (ISRE)"
value = 0.11


Now turn to the next compound.
Challenge: I'd like to know its HEK-ISRE luc (LEC). The compound in question is `CCC[C@@H](CO)Nc1nc(N)nc2cccc(Cl)c12`
Response given: 0.03

----------
- tested.target: human TLR7 (Homo sapiens)
- Construct: expressed in transfected cells; host or cells: HEK293
- assay.notes: TLR7 wild type NFκB-luc cellular reporter assay
- Type: cell-based
- Parameters: unit not given here
- experimental.setup: HEK293 NFκB-luc reporter, 6 hours incubation; second part of table
quantity.kind: TLR7-wt (LEC)

a. CCC[C@@H](CO)Nc1nc(N)nc2c(Cl)cccc12 [Compound 69]
b. CC[C@H](C)[C@@H](CO)Nc1nc(N)nc2c(F)cccc12 [Compound 67]
c. CCC[C@@H](CCO)Nc1nc(N)nc2ccc(C(C)C)cc12 [Compound 26]
Challenge: Highest to lowest TLR7-wt (LEC): rank the entries shown above. Provide your answer as the labels ordered per the instruction.
Response given: a, c, b
(a: 7.48, c: 3.60, b: 2.50)

A. CCCC[C@@H](CCO)Nc1nc(N)nc2cc(F)ccc12 [Compound 82]
B. CCCC[C@@H](CCO)Nc1nc(N)nc2ccc(C)cc12 [Compound 74]
Challenge: Given the two records A and B , choose the one whose TLR7-wt (LEC) value is lower. Please reply using the label of the selected record.
Response given: A

a. CCCC[C@@H](CCO)Nc1nc(N)nc2c(F)cccc12 [Compound 81]
b. CCC[C@@H](CO)Nc1nc(N)nc2cc(F)ccc12 [Compound 48]
c. CCC[C@@H](CCO)Nc1nc(N)nc2ccc(Oc3ccc(C(F)(F)F)cc3)cc12 [Compound 29]
d. CCCC[C@@H](CO)Nc1nc(N)nc2cc(F)ccc12 [Compound 60]
e. CCCCNc1nc(N)nc2cc(F)c(F)cc12 [Compound 42]
Challenge: Order the 5 molecules from highest to lowest TLR7-wt (LEC). Provide your answer as the labels ordered per the instruction.
Response given: c, e, b, d, a
